Form field: Cell Viability (one value per entry).
System: Colon cancer organoid
Assay: Optimized Dual-Glo assay to identify co-culture induced drug vulnerabilities using donated chemical probes and chemogenomics kinase set in O06 CRC organoid and F06 CAF mono and co-culture. […] Cell viability is reported both mono and co-culture models.
Type: functional, Homo sapiens
Parameters: dose or concentration left out as unconfirmed
Details: Culture type Mono-Culture; Transduced with Renilla-dsRed lentivirus
RECORDED_ENDPOINT: Cell Viability (%)

COMPOUND	UNITS_TEXT	VALUE
COc1ccccc1S(=O)(=O)Nc1ccc2c(c1)CN(C)C(=O)N2	%	116.533
O=C1[C@H](Cc2ccc(O)cc2)N2C(=O)CCN(C(=O)NCc3ccccc3)[C@H]2CN1Cc1cccc2ccccc12	%	61.7438
C[C@]1(O)C[C@@H](c2nc(-c3ccc4ccc(-c5ccccc5)nc4c3)c3c(N)nccn32)C1	%	74.7669
CSc1cccnc1N1CCN(Cc2nc3ccccc3[nH]2)CC1	%	109.755
COc1cc(C)c(Sc2cnc(NC(=O)c3ccc(CNC(C)C(C)(C)C)cc3)s2)cc1C(=O)N1CCN(C(C)=O)CC1 (centres undefined)	%	54.8582
CCOc1ccn(-c2ccc(F)cc2)c(=O)c1C(=O)Nc1ccc(Oc2ccnc(N)c2Cl)c(F)c1	%	101.253
CC1(C)C(N)=Nc2cc(OCCCCN3Cc4ccc(OCc5cn(CC(=O)N6CCC(CCN7CCCC7)CC6)nn5)cc4C3)c(OCC3CC3)cc21	%	105.711
COc1cccc(CNC(=O)c2nc3scc(CN(C)Cc4ccccc4)c3c(=O)[nH]2)c1 [T-26f]	%	101.465
N#CC1(c2ccccn2)CCN(Cc2cc(C(=O)N3CCCC3)c(=O)n3ccccc23)CC1	%	111.31

###

Recorded Cell Viability for the following compounds
System: Colon cancer organoid
Experiment: Optimized Dual-Glo assay to identify co-culture induced drug vulnerabilities using donated chemical probes and chemogenomics kinase set in O06 CRC organoid and F06 CAF mono and co-culture. […] Cell viability is reported both mono and co-culture models.
Format: functional, Homo sapiens
Set-up: dose or concentration left out as unconfirmed
Conditions: Culture type Mono-Culture; Transduced with Renilla-dsRed lentivirus
RECORDED_ENDPOINT: Cell Viability (%)

SMILES	VALUE
CCOc1cc2ncc(C#N)c(Nc3ccc(OCc4cccc(F)c4)c(Cl)c3)c2cc1NC(=O)/C=C/CN(C)C	45.0211
C[C@H](NC(=O)Nc1cc2[nH]ncc2c(CO)n1)c1ccccn1	116.172
COc1cc(C(=O)N2CC[C@@H](O)[C@@H](N)C2)cc2nc(-c3cc4ccccc4n3CC3CC3)n(C)c12.Cl	122.476
COc1cc(Nc2ncc3c(n2)-c2ccc(Cl)cc2C(c2c(F)cccc2OC)=NC3)ccc1C(=O)O	120.563
CCC(=O)N[C@H]1CC[C@@H](C(=O)N(C)c2ccc(-c3nc4ccccc4o3)cc2)C1	86.3048
CC1CCN(c2ccnc(NCc3cn(C)cn3)n2)CC1	110.509
CNc1cc(Oc2cc(C(=O)Nc3cc(N4CCN(C)CC4)cc(C(F)(F)F)c3)ccc2C)ncn1	104.785
CCc1cc(Nc2nccc(-c3c(-c4ccc(OC)c(C(=O)Nc5c(F)cccc5F)c4)nc4ccccn34)n2)c(OC)cc1N1CCC(N2CCN(S(C)(=O)=O)CC2)CC1	111.569
O=C(Nc1cccnn1)N1CC(C/C=C/c2cncc(Oc3ccc(C(F)(F)F)cn3)n2)C1	92.4101
Cc1cc(CN)cc(C)c1-c1ncn(C)c1-c1cncn1C	144.43
